- Tested on: K562 human chronic myeloid leukaemia cells
- procedure text: K562 assay, in vitro cytotoxicity (MTT)
- Assay type: cell-based
- experimental setup: drug incubation 1 hour or 96 hours (not specified which), dose reducing final optical density to 50% of control
- Procedure: Determination of In Vitro Cytotoxicity K562 human chronic myeloid leukaemia cells were maintained in RPM1 1640 medium supplemented with 10% fetal calf serum and 2 mM glutamine at 37° C. in a humidified atmosphere containing 5% CO2 and were incubated with a specified dose of drug for 1 hour or 96 hours at 37° C. in the dark. […] The optical density was then read at a wavelength of 550 nm on a Titertek Multiscan ELISA plate reader, and a dose-response curve was constructed. […]
measure name: pIC50
Kindly note that pIC50 refers to -log10 of the concentration in mol/L and answer with the value alone.

Lab note: measured pIC50 of COc1ccc(C2=CN3C(=O)c4cc(OC)c(OCCCCCOc5cc6c(cc5OC)C(=O)N5C=C(c7ccc(N)cc7)C[C@H]5C=N6)cc4N=C[C@@H]3C2)cc1 was 4.52
